- target: T1, His-tagged CD47 recombinant protein, CD47-His (human, UniProt Q08722 19-141, limits assumed)
- T1 construct: it is not restated for CD47-His; also called human CD47-His protein; antigen CD47-His; not shown: His tag
- assay-method-text: BLI (Octet Red 96), antibody on AHC sensor, CD47-His 100 nM
reported-property: kon

{"binder": "c54G8G6 (antibody, V domains shown) VH: QVQLQQPGADLVKPGASVKMSCKASGYTFTSYWIIWVKQRPGQGLEWIGDINPGRGSPNYNEKFKRKATLTVDTSSSTAYMQLSSLTSEDSAVYYCVRGGLRRFDHWGQGTLVTVSA VL: ENVLTQSPAIMSASPGEKVTMTCRASSSVSSSYLHWYQQKSGASPKLWIYSTSTLASGVPARFSGSGSGTSYSLTISSVEAEDAATYYCQQYSGYPYTFGGGTKLEIK", "reported-property": "kon", "result": "343000 M⁻¹ s⁻¹"}
{"binder": "c132D1E5 (antibody, V domains shown) VH: QVQLQQPGAELVRPGSSVKLSCKASGYTFTNNWMHWVKQRPLQGLEWIGNIDPSDSETHYNQKFKDKATLTVDKSSTTAYIQLSSLTSEDSAVYYCARWRGGGRGAMDYWGQGTSVTVSS VL: DVQITQSPSYLAASPGETITINCRTSKNISKFLAWYQEKPGKTNKLLIYSGSTLQSGIPSRFSGSGSGTDFTLTISNLEPEDFAMYYCQQHNEYPWTFGRGTKLEIK", "reported-property": "kon", "result": "369000 M⁻¹ s⁻¹"}
{"binder": "c29A03NA (antibody, V domains shown, Phage-derived clone 29A03 with the NG site of CDRL1 mutated to NA) VH: EVQLQQSGAELVKPGASVKMSCKASGYTFTNYWITWVKQRPGQGLEWIGDIYPVSGGTDYNEKFKTRATLTVDTSSSTAYMHLSSLTSEDSAVYYCARKGRGGVDYWGQGTTLTVSS VL: DILMTQTPLSLPVSLGDQASISCRSSQSIVHSNANTYLEWYLQKPGQSPKLLIYKVSNRFSGVPDRFSGSGSGTDFTLKISRVEAEDLGVYFCSQSTHVPYTFGGGTKLEIK", "reported-property": "kon", "result": "442000 M⁻¹ s⁻¹"}
{"binder": "c4D10B11 (antibody, V domains shown) VH: QVQLQQSGPELVKPGASVKISCKASGYSFTSYYIHWVKQRPGQGLEWIGWIYPGSGNTKYNEKFKGKATLTADTSSSTADMQLSSLTSEDSAVYYCARRGDWYFDVWGTGTTVTVSS VL: DIVMSQSPSSLVVSVGEKVTMNCKSSQSLLFSGNQKSSLAWYQQKPGQSPKLLIYWASTRESGVPDRFTGSGSGTDFTLIISTVKAEDLAVYSCQQYYSYPLTFGAGTKLELK", "reported-property": "kon", "result": "268000 M⁻¹ s⁻¹"}
{"binder": "c51E2F11 (antibody, V domains shown) VH: EVQLQQSGAELVKPGASVKLSCTASGFNIKDHYIHWMNQRTEQGLEWIGRIDPDDGETRYAPKFRGKATLTADTSSNTAYLQFSSLTSEDTAVYHCTRATTITRDWYFDVWGTGTTVTVSS VL: DIVMTQSQKFMSTSVGDRVSITCKASQNVRTSVAWYQQKPGQSPKALIYLASNRHTGIPDRFTGSGSGTDFTLTIRNVQSEDLADYFCLQHWDYPLTFGAGTKLELK", "reported-property": "kon", "result": "428000 M⁻¹ s⁻¹"}
